System: MCF7 breast
protocol.details: NCI tumour cell line growth inhibition, 48 h
Where a SMILES comes first, the peptide text is derived from it. [ ]: non-standard residue; d: D form. The star is where a group is joined. ξ: configuration not given here. NMeF = CN[C@@H](Cc1ccccc1)C(=O)O; NMeN = CN[C@@H](CC(N)=O)C(=O)O; NMeV = CN[C@H](C(=O)O)C(C)C; ξNMeV = CNC(C(=O)O)C(C)C; Boc = CC(C)(C)OC(=O)*; ξNMeA = CNC(C)C(=O)O; ξV = CC(C)C(N)C(=O)O
Listed below: TGI values for each entry.
measured.property: TGI (µM)

{"compound": "c1ccc(-c2cn3nc(N4CCOCC4)sc3n2)cc1", "limit.operator": ">", "value.observed": 100}
{"compound": "FC(F)(F)c1ccc(C2=N/S(c3ccccc3)=N\\C(c3ccc(C(F)(F)F)cc3)=N/S(c3ccccc3)=N\\2)cc1 (stereo not given)", "limit.operator": ">", "value.observed": 100}
{"compound": "COC(=O)C(C)N(C)C(=O)[C@H](CC(N)=O)N(C)C(=O)[C@@H]1CCCN1C(=O)[C@H](C(C)C)N(C)C(=O)C(C(C)C)N(C)C(=O)[C@H](Cc1ccccc1)N(C)C(=O)C(NC(=O)OC(C)(C)C)C(C)C (stereo not given in full) (Boc-[ξV][NMeF][ξNMeV][NMeV]P[NMeN][ξNMeA]-OMe)", "limit.operator": "=", "value.observed": 50}
{"compound": "C=C[C@]1(C)C[C@@H](OC(=O)CO)[C@@]2(C)[C@H](C)CC[C@]3(CCC(=O)[C@H]32)[C@@H](C)[C@@H]1O", "limit.operator": ">", "value.observed": 100}
{"compound": "CC1[C@@H]2CC=C3C4CCC5Cc6nc7c(nc6C[C@@]5(C)C4CC(=O)[C@]32CO[C@@]1(O)C(O)CC(C)(C)O)CC1CCC2C3=C[C@H]4O[C@@]5(O[C@@](C)(CO)C[C@@H]5O)C(C)[C@@]4(O)[C@]3(C)[C@@H](O)CC2[C@]1(C)C7 (stereo not given in full)", "limit.operator": "=", "value.observed": 0.192}

----------
log10 of TGI listing for selected compounds.
Test system: HS 578T breast
protocol.details: NCI tumour cell line growth inhibition, 48 h
measured.property: log10 of TGI (log10 of the value in µM)

{"smiles.representation": "COc1ccc(C=C2C(=O)NC(=S)NC2=O)c2ccccc12", "measured.on": "HS 578T breast", "log10 of TGI": 1.78}
{"smiles.representation": "CC(C)c1nc(Cl)nc(Cl)c1Cl", "measured.on": "HS 578T breast", "log10 of TGI": 0.46}
{"smiles.representation": "COc1ccc(OC)c(CCc2cc(OC)ccc2OC)c1", "measured.on": "HS 578T breast", "log10 of TGI": 0.86}
{"smiles.representation": "N=C(N)c1ccc(-c2ccc(-c3ccc(F)cc3)s2)nc1", "measured.on": "HS 578T breast", "log10 of TGI": 0.95}
{"smiles.representation": "CCOC(=O)c1c(SCCCN2CCCCC2)n(-c2ccccc2)c(=S)n(-c2ccccc2)c1=O", "measured.on": "HS 578T breast", "log10 of TGI": 1.67}
{"smiles.representation": "COc1ccc2c(c1)C(=O)c1c-2c(=O)n(CCCCCCC(=O)NO)c2ccccc12", "measured.on": "HS 578T breast", "log10 of TGI": 0.65}
{"smiles.representation": "COc1cc(/C=C\\c2cc(/C=C\\c3ccc(O)c(OC)c3)n(C(=O)COc3ccccc3)n2)ccc1O", "measured.on": "HS 578T breast", "log10 of TGI": 0.84}
{"smiles.representation": "Cc1ccc(-c2cc(-c3cc(-c4ccc(C)cc4C)n[nH]3)[nH]n2)c(C)c1", "measured.on": "HS 578T breast", "log10 of TGI": 1.65}
